Where do these numbers come from? They come from the supplement of paper PMC10567573.

// values below are reported protein stability index
B1: KLHL20 (parent)
chain: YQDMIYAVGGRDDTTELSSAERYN

Variants of: B1
test.details: protein stability index of a GFP-peptide fusion (GPS, HEK-293T) (PSI 1-6); higher = more stable;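 note: lentivirally expressed fusions sorted by FACS into six bins by GFP to DsRed ratio, PSI derived from sequencing read proportions per bin multiplied by bin number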
assay.context: c terminus: a fixed tail appended
endpoint: protein stability index

variant: A7C
endpoint: protein stability index
test.value: 2.17
//
variant: D12N
endpoint: protein stability index
test.value: 2.43
//
variant: Q2F
endpoint: protein stability index
test.value: 2.79
//
variant: T15K
endpoint: protein stability index
test.value: 2.13
//
variant: T14I
endpoint: protein stability index
test.value: 2.09
//
variant: S19I
endpoint: protein stability index
test.value: 2.01
//
variant: E16K
endpoint: protein stability index
test.value: 1.85
//
variant: R22T
endpoint: protein stability index
test.value: 2.18
//
variant: T14Y
endpoint: protein stability index
test.value: 2.1
//
variant: V8R
endpoint: protein stability index
test.value: 2.52
//
variant: G9H
endpoint: protein stability index
test.value: 1.94
//
variant: Y1P
endpoint: protein stability index
test.value: 4.57
//
variant: G10L
endpoint: protein stability index
test.value: 1.78
//
variant: L17G
endpoint: protein stability index
test.value: 2.82
//
variant: D13Q
endpoint: protein stability index
test.value: 2.11
//
variant: Y23L
endpoint: protein stability index
test.value: 2.25
//
variant: T14E
endpoint: protein stability index
test.value: 2.78
